Measured values drawn from the nanobody polyreactivity screen of Harvey et al. (2022) for this set.

Experiment: yeast display, Sf9 membrane polyspecificity reagent, FACS + sequencing; frameworks hold sequencing errors
assayEndpoint: polyreactivity (PSR sort gate)

QVQLVESAGGLVQAGVSLRLSCAASGIIFPYYTMGWYRQAPGKERELVARITNGGRTYYADSVKGRFTISRDNAKNTVYLQMNSLKPEDTAVYYCNAGRYYIGGYWGQGTQVTVSS high polyreactivity
QVQLVESGGGLVQAGGSLRLSCAASGRTFYIYAMGWYRQAPAKERELVAAITWSRGSSTYYADSVKGRFTISRDNAKNTVYLQMNSLKPEDTAVYYCAAETHYYWYEQYDYCGQGTQVTVSS high polyreactivity

---

Assay: yeast display, Sf9 membrane polyspecificity reagent, FACS + sequencing; frameworks hold sequencing errors
assayEndpoint: polyreactivity (PSR sort gate)

QVQLVESGGGLVQAGGSLRLSCAASGSTFTRNTMGWYRQAPGKERELVAVISRRGGSTYYADSVKGRFTISRDNAKNTVYLQMNSLKPEDTAVYYCNTAAYRLQYEYWGQGTQVTVSS high polyreactivity
QVQLVESGAGLVQAGGSLRLSCAPSGRTFWGKVMGWYRQAPGKERELVAAITGRVGSTRYADSVKGRFTISRDNAKNTVFLQMNSLKPEDTAVYYCNADDYELYDYWGQGTQVTVSS low polyreactivity
QVQLVESGGGLVQAGGSLRLSCAASGSIFYINAMGWYRQAPGKEREFVATITWSGDSTYYADSVKGRFTISRDNAKNTVYLQMNSLKPEDTAVYYCTARKQYQSYVDWEYDYWGQGTQVTVSS low polyreactivity
QVQLVESGGGLVQAGGSLRLSCAASGLTFERYAMGWYRQAPGKERELVADITWSGGRTYYADSVKGRFTISRDNAKNTVYLQMNSLKPEDTAVYYCAADVYPGYVGSQEYDYWGQGTQVTVSS low polyreactivity
QDQLVESGGGLVQAGGSLRLSCAASGRTFYLYAMGWYRQAPGKERELVARISWGGGRTYYADSVKGRFTISRDNAKNTVYLQMNSLKPEDTAVYYCNAQSPRGFTTTRQVYPLNGYWGQGTQVTVSS high polyreactivity
QVQLVESGGGLVQAGGSLRLSCAASGSIFSGNAMGWYRQAPGKERELVAAISRSGTSTYYADSVKGRFTISRDNAKNTVYFQMNSLKPEDTAVYYCNARSYYTLRSDFYYWGQGTQVTVSS high polyreactivity

Kindly note the recorded polyreactivity (PSR sort gate) for `QVQLVESGGGLVQAGGSLRLSCAASGRTFPYNAMGWYRQAPGKERELVAAITSSGSSTYYADSVKGRFTISRDNAKNTVYLQMNSLKPEDTAVYYCAADSYLIVGSSLVWQGYYYWGQGTQVTVSS` , which is low polyreactivity

// field: polyreactivity (PSR sort gate); key: `QVQLVESGGGLVQAGGSLRLSCAASGRTIKKYAMGWDRQAPGQEREFVAAITGSGGSTYYADSVKGRFTISRDNAKNTVYLQMNSLKPEDTAVYYCAAYAYGVWHSQDGGNYWGKGTQVTVSS` ; value = low polyreactivity

# sequence `QVQLVESGGGLVQAGGSLRLSCAASGFTFYRNAMGWYRQAPGKERELVAAISGSGGRTYADSVKGRFTISRDIAKNTVYLQMNSLKPEDTAVYYCAASGYSSYRRYSTSNGYWGQGTQVTVSS` ; its polyreactivity (PSR sort gate) = high polyreactivity

The recorded polyreactivity (PSR sort gate) for entry `QVQLVESGGGLVQAGGSLRLSCAASGFIFARYAMGWYRQAPGKERELVATISYTGGRRYYADSVKGRFTISRDHANNTVYLQINSLKPEDTAVYYVNAVYSYDRQRHEYWGQGTQVTVSS` equals high polyreactivity

// polyreactivity (PSR sort gate) value for `QVQLVESGGGIVQAGGSLRLSCAASGSIFVHNDLGWYRQAPGKERELVARINTGGGTNYADSVKGRFTISRDNAKKTVYLQMNSLKPEDTAVYYCATDGDRDDHYFTDPEFDYWGQGTQVTVSS` : low polyreactivity
